System: Mycobacterium tuberculosis
assay-info: Antimicrobial activity against non replicating persistence Mycobacterium tuberculosis H37Rv in anaerobic condition assessed as relative light unit after 11 days by LORA assay
Format: functional
test-context: 264 h
The following compounds are shown together with reported MIC values.
Express the result in µM but write the number alone.

Example entries and their recorded answers appear below.
compound	measure	unit-label	endpoint-result
CO[C@H]1/C=C/O[C@@]2(C)Oc3c(C)c(O)c4c(O)c(c(/C=N/N5CCN(C)CC5)c(O)c4c3C2=O)NC(=O)/C(C)=C\C=C\[C@H](C)[C@H](O)[C@@H](C)[C@@H](O)[C@@H](C)[C@H](OC(C)=O)[C@@H]1C	MIC	µM	1.8
COc1c(N2C[C@@H]3CCCN[C@@H]3C2)c(F)cc2c(=O)c(C(=O)O)cn(C3CC3)c12	MIC	µM	15.9
CC(=O)O[C@H]1C[C@@]2(C)[C@@H](C[C@@H](O)[C@H]3[C@@]4(C)CC[C@@H](O)[C@@H](C)[C@@H]4CC[C@@]32C)/C1=C(\CCC=C(C)C)C(=O)O	MIC	µM	57.7
O=C1OCCN1/N=C/c1ccc([N+](=O)[O-])o1	MIC	µM	9.7
CN[C@@H]1[C@H](O[C@H]2[C@H](O[C@H]3[C@H](O)[C@@H](O)[C@H](N=C(N)N)[C@@H](O)[C@@H]3N=C(N)N)O[C@@H](C)[C@]2(O)C=O)O[C@@H](CO)[C@H](O)[C@H]1O (stereo in doubt)	MIC	µM	1.2

// fetch MIC given entry "CC[C@H]1OC(=O)[C@H](C)[C@@H](O[C@H]2C[C@@](C)(OC)[C@@H](O)[C@H](C)O2)[C@H](C)[C@@H](O[C@@H]2O[C@H](C)C[C@H](N(C)C)[C@H]2O)[C@](C)(OC)C[C@@H](C)C(=O)[C@H](C)[C@@H]2N(NCCCc3ccnc4ccccc34)C(=O)O[C@@]21C"
2.7

Specify MIC for "CC(=O)N1CCN(c2ccc(OC[C@H]3CO[C@](Cn4ccnc4)(c4ccc(Cl)cc4Cl)O3)cc2)CC1" and stop.
53

Note down MIC recorded for "CC(C)/N=c1\cc2n(-c3ccc(Cl)cc3)c3ccccc3nc-2cc1Nc1ccc(Cl)cc1"
1.5

Please supply the value of reported MIC for the item "CN(C)c1ccc(O)c2c1C[C@H]1C[C@H]3[C@H](N(C)C)C(O)=C(C(N)=O)C(=O)[C@@]3(O)C(O)=C1C2=O"
53.5

Identify measured MIC corresponding to "O=[N+]([O-])c1cn2c(n1)OC[C@@H](OCc1ccc(OC(F)(F)F)cc1)C2"
3.1

Every entry's value here was drawn from ChEMBL document CHEMBL1145536.
